Hello, the source for this data is patent US9181236B2, in case you need it.

purified human autoBACE-2 (Homo sapiens (Human)) pKi data
Sequence (Q9Y5Z0 63-473 limits assumed): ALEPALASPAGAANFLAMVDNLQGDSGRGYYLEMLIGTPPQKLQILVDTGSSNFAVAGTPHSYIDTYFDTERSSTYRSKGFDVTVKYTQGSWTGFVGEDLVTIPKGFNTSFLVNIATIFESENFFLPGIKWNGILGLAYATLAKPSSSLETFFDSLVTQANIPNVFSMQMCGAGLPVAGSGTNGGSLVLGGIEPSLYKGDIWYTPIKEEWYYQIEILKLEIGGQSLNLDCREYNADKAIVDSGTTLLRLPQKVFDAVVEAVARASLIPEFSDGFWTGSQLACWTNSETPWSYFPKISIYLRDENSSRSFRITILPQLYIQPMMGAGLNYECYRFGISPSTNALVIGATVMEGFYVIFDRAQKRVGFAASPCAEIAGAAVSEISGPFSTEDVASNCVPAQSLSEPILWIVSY
pKi: −log10 of the molar value.

[
  {
    "compound": "COc1ccc(C(=O)Nc2ccc(F)c([C@]3(C)CS(=O)(=O)[C@]4(CCOC4)C(=N)N3)c2)nc1 [Example 62a]",
    "pKi": "> 7.70"
  },
  {
    "compound": "C[C@@]1(c2cc(NC(=O)c3ccc(Cl)cn3)ccc2F)CS(=O)(=O)C2(CCCCC2)C(=N)N1",
    "pKi": "> 7.70"
  }
]

I looked up `C[C@@]1(c2sc(-c3cncc(C#N)c3)cc2Cl)CS(=O)(=O)C2(CCOCC2)C(=N)N1` and its pKi for purified human autoBACE-2 (Homo sapiens (Human)) was > 7.30

Reading of pKi for C[C@@]1(c2cc(NC(=O)c3ccc(C#N)cn3)ccc2F)CS(=O)(=O)[C@]2(CCOC2)C(=N)N1 [Example 62e] with purified human autoBACE-2 (Homo sapiens (Human)): > 7.70

Record `C[C@@]1(c2sc(Br)cc2Cl)CS(=O)(=O)C2(CCCC2)C(=N)N1` has purified human autoBACE-2 (Homo sapiens (Human)) pKi equal to 6.87

Entry `COc1cnc(C(=O)Nc2ccc(F)c([C@]3(C)CS(=O)(=O)C4(CCOCC4)C(=N)N3)c2)cn1` : pKi on purified human autoBACE-2 (Homo sapiens (Human)) = > 7.30

The value of pKi recorded for C[C@@]1(c2sc(-c3cccc(-c4nnco4)c3)cc2Cl)CS(=O)(=O)[C@@]2(CCOC2)C(=N)N1 [Example 63g] when tested on purified human autoBACE-2 (Homo sapiens (Human)) reads > 7.30

Response field pKi (purified human autoBACE-2 (Homo sapiens (Human))) for item `C[C@@]1(c2sc(-c3cccc(C(F)(F)F)c3)cc2Cl)CS(=O)(=O)C2(CCOCC2)C(=N)N1` : > 7.30

C[C@@]1(c2sc(-c3cncc(C#N)c3)cc2Cl)CS(=O)(=O)[C@]2(CCOC2)C(=N)N1 [Example 62f] tested on purified human autoBACE-2 (Homo sapiens (Human)) gave pKi: > 7.70
